Test system: AMARE
Experiment: Post-emergence herbicidal activity, glasshouse pot test; also: key: 5=total damage to plant; 0=no damage to plant
Type: in vivo
Details: Amaranthus retroflexus; application post-emergence; rate 1000 g/Ha; evaluated after 13 days
Listed here: items and their measured Post-emergence herbicidal activity AMARE (damage score 0-5).
Please respond with just the number, no unit label.

MOLECULE: CCOC1C(O)N(c2cc(C(F)(F)F)c(C)cn2)C(=O)N1C (stereo not drawn)
ENDPOINT_RESULT: 5

MOLECULE: CCOC1C(O)N(c2cc(C(F)(F)F)ccn2)C(=O)N1C (racemic)
ENDPOINT_RESULT: 5

MOLECULE: CCOC1C(O)N(c2cc(C(F)(F)F)c(OC)cn2)C(=O)N1C (stereo not drawn)
ENDPOINT_RESULT: 5

MOLECULE: COC(OC)C1C(O)N(c2cc(C(F)(F)F)ccn2)C(=O)N1C (stereo not drawn)
ENDPOINT_RESULT: 4

MOLECULE: CCOC1C(O)N(c2cc(C(F)(F)F)c(Cl)cn2)C(=O)N1C (stereo not drawn)
ENDPOINT_RESULT: 5

Measured Post-emergence herbicidal activity AMARE (damage score 0-5) for this entry CCOC1C(O)N(c2cc(C(C)(F)F)ccn2)C(=O)N1C (stereo not drawn) on AMARE: 5

Measured Post-emergence herbicidal activity AMARE (damage score 0-5) for this entry CON1C(=O)N(c2ccc(C(F)(F)F)cn2)C(O)C1C (stereo not drawn) on AMARE: 5

Measured Post-emergence herbicidal activity AMARE (damage score 0-5) for this entry O=C1N2CCOC2C(O)N1c1cc(C(F)(F)F)ccn1 (stereo not drawn) on AMARE: 5

Measured Post-emergence herbicidal activity AMARE (damage score 0-5) for this entry CCO[C@H]1[C@H](OC(=O)[C@](OC)(c2ccccc2)C(F)(F)F)N(c2cc(C(F)(F)F)ccn2)C(=O)N1C on AMARE: 2

====

Test system: SETFA
Assay: Post-emergence herbicidal activity, glasshouse pot test; also: key: 5=total damage to plant; 0=no damage to plant
Format: in vivo
Settings: Setaria faberi; application post-emergence; rate 1000 g/Ha; evaluated after 13 days
QUANTITY_MEASURED: Post-emergence herbicidal activity SETFA (damage score 0-5)
Please respond with just the number, no unit label.

So, CCO[C@H]1C(O)N(c2cc(C(F)(F)F)ccn2)C(=O)N1C (single isomer, unassigned) [Compound A35] ? Its Post-emergence herbicidal activity SETFA (damage score 0-5) was 3

So, CCOC1C(O)N(c2cc(C(F)(F)C(F)(F)F)ccn2)C(=O)N1C (stereo not shown) [Compound A82] ? Its Post-emergence herbicidal activity SETFA (damage score 0-5) was 4

So, CON1C(=O)N(c2cc(C(F)(F)F)c(C)cn2)C(O)C1C (single isomer, unassigned) [Compound A58] ? Its Post-emergence herbicidal activity SETFA (damage score 0-5) was 5

So, CCN1CC(O)N(c2cc(C(F)(F)F)ccn2)C1=O (stereo not shown) [Compound A95] ? Its Post-emergence herbicidal activity SETFA (damage score 0-5) was 5

====

Test system: ECHCG
Assay: Pre-emergence herbicidal activity, glasshouse pot test
Assay type: in vivo
Conditions: rate 1000 g/Ha, evaluated after 13 days, scale 0-5
QUANTITY_MEASURED: ECHCG damage score, application pre-emergence
Please respond with just the number, no unit label.

COMPOUND: CCOC1C(OC(=O)[C@@H](OC(C)=O)c2ccccc2)N(c2cc(C(F)(F)F)ccn2)C(=O)N1C (some centres unmarked) [Compound A97]
ENDPOINT_RESULT: 4
--
COMPOUND: CCO[C@H]1C(O)N(c2cc(C(F)(F)F)ccn2)C(=O)N1C (single isomer, unassigned) [Compound A35]
ENDPOINT_RESULT: 4
--
COMPOUND: CC1C(O)N(c2ccc(C(=O)NC(C)(C)C)cn2)C(=O)N1C (centres unmarked) [Compound A67]
ENDPOINT_RESULT: 5

So, COC[C@@H]1C(O)N(c2cc(C(F)(F)F)ccn2)C(=O)N1C (some centres unmarked) [Compound A77] ? Its ECHCG damage score, application pre-emergence was 5

So, CN1C(=O)N(c2cc(C(F)(F)F)ccn2)C(O)C1CC(F)(F)F (centres unmarked) [Compound A68] ? Its ECHCG damage score, application pre-emergence was 0

So, CN1C(=O)N(c2cc(C(F)(F)F)ccn2)C(O)C1CO (centres unmarked) [Compound A43] ? Its ECHCG damage score, application pre-emergence was 1

So, COCCOCc1cnc(N2C(=O)N(C)C(C)C2O)cc1C(F)(F)F (centres unmarked) [Compound A108] ? Its ECHCG damage score, application pre-emergence was 5

So, O=C1N(c2cc(C(F)(F)F)ccn2)C(O)[C@@H]2CCCN12 (some centres unmarked) [Compound A46] ? Its ECHCG damage score, application pre-emergence was 4

So, CC1C(O)N(c2cc(C(F)(F)F)c(I)cn2)C(=O)N1C (centres unmarked) [Compound A25] ? Its ECHCG damage score, application pre-emergence was 5

So, CCOC1C(O)N(c2cc(C(F)(F)F)c(-c3cncnc3)cn2)C(=O)N1C (centres unmarked) [Compound A14] ? Its ECHCG damage score, application pre-emergence was 5

====

Test system: ECHCG
Assay: Pre-emergence herbicidal activity, glasshouse pot test
Type: in vivo
Conditions: rate 1000 g/Ha, evaluated after 13 days, scale 0-5
Listed here: items and their measured ECHCG damage score, application pre-emergence.
Please respond with just the number, no unit label.

Below are worked cases with known answers.
MOLECULE: CCOC1C(O)N(c2cc(C(F)(F)F)ccn2)C(=O)N1CC (stereo not drawn)
ENDPOINT_RESULT: 1
--
MOLECULE: CON1C(=O)N(c2cc(C(F)(F)F)c(C)cn2)C(O)[C@@H]1C (stereo partly drawn)
ENDPOINT_RESULT: 5
--
MOLECULE: COC(OC)C1C(O)N(c2cc(C(F)(F)F)ccn2)C(=O)N1C (stereo not drawn)
ENDPOINT_RESULT: 0
--
MOLECULE: CN1C(=O)N(c2cc(C(F)(F)F)ccn2)C(O)C1OCC(F)(F)F (stereo not drawn)
ENDPOINT_RESULT: 3

So, CN1C(=O)N(c2cc(C(F)(F)F)ccn2)C(O)C1O (stereo not drawn) ? Its ECHCG damage score, application pre-emergence was 3

So, COC1C(O)N(c2cc(C(F)(F)F)ccn2)C(=O)N1C (stereo not drawn) ? Its ECHCG damage score, application pre-emergence was 4

So, CC1C(O)N(c2ccc(Cl)cn2)C(=O)N1C (single isomer, unassigned) ? Its ECHCG damage score, application pre-emergence was 4

So, COc1ccc(-c2cnc(N3C(=O)N(C)C(C)C3O)cc2C(F)(F)F)cn1 (stereo not drawn) ? Its ECHCG damage score, application pre-emergence was 5

So, CC1C(O)N(c2cc(C(F)(F)F)ccn2)C(=O)N1C(F)F (stereo not drawn) ? Its ECHCG damage score, application pre-emergence was 4

====

Listed here: items and their measured Post-emergence herbicidal activity ALOMY (damage score 0-5).
Tested on: ALOMY
Test: Post-emergence herbicidal activity, glasshouse pot test; also: key: 5=total damage to plant; 0=no damage to plant
Assay type: in vivo
Details: Alopecurus myosuroides; application post-emergence; rate 1000 g/Ha; evaluated after 13 days
Please respond with just the number, no unit label.

So, CC1C(O)N(c2cc(C(F)(F)F)c(NC(=O)C(C)(C)C)cn2)C(=O)N1C (single isomer, unassigned) [Compound A57] ? Its Post-emergence herbicidal activity ALOMY (damage score 0-5) was 5

So, CCOC1C(O)N(c2cc(C(F)(F)F)c(-c3cncnc3)cn2)C(=O)N1C (stereo not shown) [Compound A14] ? Its Post-emergence herbicidal activity ALOMY (damage score 0-5) was 4

So, COc1ncc(-c2cnc(N3C(=O)N(C)C(C)C3O)cc2C(F)(F)F)cn1 (stereo not shown) [Compound A22] ? Its Post-emergence herbicidal activity ALOMY (damage score 0-5) was 5

So, CC1C(O)N(c2cc(C(F)(F)F)c(-c3cncnc3)cn2)C(=O)N1C (stereo not shown) [Compound A11] ? Its Post-emergence herbicidal activity ALOMY (damage score 0-5) was 4

====

System: ECHCG
Test: Pre-emergence herbicidal activity, glasshouse pot test
Type: in vivo
Conditions: rate 1000 g/Ha, evaluated after 13 days, scale 0-5
Listed here: items and their measured ECHCG damage score, application pre-emergence.
Please respond with just the number, no unit label.

COMPOUND: CCN1CC(O)N(c2cc(C(F)(F)F)ccn2)C1=O (stereo not drawn)
ENDPOINT_RESULT: 5

So, CC1C(O)N(c2cc(C(F)F)c(Cl)cn2)C(=O)N1C (stereo not drawn) ? Its ECHCG damage score, application pre-emergence was 5

So, CON1C(=O)N(c2cc(C(F)(F)F)ccn2)C(O)C1C (stereo not drawn) ? Its ECHCG damage score, application pre-emergence was 4

So, COc1cncc(-c2cnc(N3C(=O)N(C)C(C)C3O)cc2C(F)(F)F)c1 (stereo not drawn) ? Its ECHCG damage score, application pre-emergence was 4

So, CCOC1C(O)N(c2cc(Cl)c(C(=O)NC(C)(C)C)cn2)C(=O)N1C (stereo not drawn) ? Its ECHCG damage score, application pre-emergence was 5

So, CCOC1C(O)N(c2ccc(C(F)(F)F)cn2)C(=O)N1C (stereo not drawn) ? Its ECHCG damage score, application pre-emergence was 4
